experiment: TNF-a-driven NF-kB reporter inhibitors, primary screen, selectivity assay for NOD1/NOD2 signaling inhibitor project, cell-based, HEK293T NF-kB-Luc, luminescence (AID 1852)
conditionInfo: TNF-a induced, 14 h, at 4 µM
The campaign covered roughly 2,500 compounds. About 1,100 (44%) were called active.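 Rule for the calls: active = inhibition above 50% at 4 µM in the single-point screen; inactive = inhibition of 50% or less.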 The set was probably picked from earlier hits. Some of the results follow.
Hello, when you answer, please use one of the following outcomes: yes (1) for active, no (0) for inactive

Prompt: Call for entry "C=CCn1c(C)cc(C(=O)COc2ccc(C)nc2[N+](=O)[O-])c1C" :
Response: no (0)

Prompt: What classification did "Cc1cc(C(=O)COc2cccnc2[N+](=O)[O-])c(C)n1Cc1cccs1" end up with in this test?
Response: no (0)

Prompt: Any idea what this test logged for CC(=O)NC(c1cccc([N+](=O)[O-])c1)c1ccc2cccnc2c1O (centres undefined) ?
Response: yes (1)

Prompt: What is the recorded call for this compound in the test? "Cc1ccc(-c2onc3ccc(C(=O)/C=C/N(C)C)cc23)cc1"
Response: no (0)
